Would you kindly list cytotoxicity at 70.5 h for each of these compounds?
- assayText: Human HepG2 cell viability assay in 384 well format
- Type: toxicity, cell-based
- Set-up: dose 125 nL, time 70.5 hour; concentration not given beside the values
- conditions: HepG2 cells, read-out: Inhibition
Just the number in %, nothing appended.

Problem: Recorded cytotoxicity at 70.5 h for CCc1nc(CN2CCCC(NCc3ncc(C(C)(C)C)o3)C2)no1 (configuration not stated) , please?
Result: 8.8

Problem: Entry "O=C1CC[C@H]2[C@H](CCN2S(=O)(=O)C2CC2)N1CCN1CCCC1" please
Result: 25.5

Problem: Entry NC(=O)c1cnn2c1NCC(CNCCCOc1ccccc1F)C2 (configuration not stated) please
Result: 6.81

Problem: Entry "CCn1nc(C)c2nc(C(C)C)nc(NCCc3ccc(O)cc3)c21" please
Result: -7.1

Problem: Entry CSC(C)C(=O)N1CCCN(Cc2cscn2)CC1 (configuration not stated) please
Result: 17.9

Problem: Entry "COC(=O)[C@H]1CCCCN1C(=O)c1cccc(-n2cccn2)c1" please
Result: -4.76

Problem: Entry "Cn1cccc1C(=O)N1C[C@H]2CN(Cc3cccs3)C[C@H]2C1" please
Result: -4.47

Problem: Entry "Cc1ncsc1CNC(=O)N(Cc1ccccc1)CC(C)(C)O" please
Result: -3.17

Problem: Entry "COc1cc(CN2CCCC2)ccc1Oc1ncccc1C(F)(F)F" please
Result: 28.7

Problem: Entry "O=C(c1ccc2c(c1)CCO2)N1CCN(c2cnccn2)CC1" please
Result: -5.33

Problem: Entry "Cc1nc(C#N)c(N2CCC(c3nc(-c4ccc(F)cc4)no3)CC2)o1" please
Result: 28.5

Problem: Entry O=C1CCC2(CCCN(C(=O)c3cnccn3)CC2)N1 (configuration not stated) please
Result: 1.43

Problem: Entry "COc1ncc(-c2cc(NCCN(C)C)nc3[nH]ccc23)c(OC)n1" please
Result: 15.3

Problem: Entry "Cn1cnc2c1CCN(CC(=O)N(Cc1ccccc1F)C1CC1)C2" please
Result: -6.36

Problem: Entry "Cc1cc(C)c(C(=O)N2CCc3c(ncn3CCc3ccccc3)C2)[nH]1" please
Result: -8.62

Problem: Entry Cc1cnn(CC2CCCCN2Cc2c(C)noc2C)c1 (configuration not stated) please
Result: -14.5

Problem: Entry NC(=O)c1cccc(CC2CCN(C(=O)CO)C2)c1 (configuration not stated) please
Result: -3

----------
Would you kindly list cytotoxicity at 70.5 h for each of these compounds?
- assayText: Human HepG2 cell viability assay in 384 well format
- Type: toxicity, cell-based
- Parameters: dose 125 nL, time 70.5 hour; concentration not given beside the values
- conditions: HepG2 cells, read-out: Inhibition

Problem: Recorded cytotoxicity at 70.5 h for "CC(C)n1cnnc1CNC(=O)c1cnn(Cc2ccccc2)c1" , please?
Result: -2.61%

Problem: Entry "O=C1CCC2(CCN(c3cccc(C(F)(F)F)n3)CC2)CN1CCO" please
Result: -5.14%

Problem: Entry CC(C)NC(=O)CN1CCC(c2cccc(F)c2)C1 (stereo not drawn) please
Result: 22.8%

Problem: Entry COc1ccc(C2=NOC(CO)C2)cc1 (stereo not drawn) please
Result: -14.5%

Problem: Entry CCCSCC(=O)N1CCN(c2ccc(OC)cc2)CC1C (stereo not drawn) please
Result: -2.57%

Problem: Entry "CCc1cc(=O)[nH]c(NC2CCN(S(=O)(=O)c3ccccc3)CC2)n1" please
Result: -7.53%

Problem: Entry "c1csc(-c2nc(CNCCn3cccn3)cs2)c1" please
Result: -7.37%

Problem: Entry "N#Cc1ccc(S(=O)(=O)NC(=O)c2ccc3c(c2)COC3)cc1" please
Result: -4.81%

Problem: Entry NCCC1CN(Cc2cnc3c(-c4ccccc4)cnn3c2)CCO1 (stereo not drawn) please
Result: -2.68%

Problem: Entry "CCc1nnsc1C(=O)NC1CCN(c2ccccn2)CC1" please
Result: 11.2%

Problem: Entry CC(C)c1cc(C(=O)N(C)C(C)c2nccs2)no1 (stereo not drawn) please
Result: -7.34%

Problem: Entry "CCO[C@H]1CO[C@@]2(CCCN(C(=O)c3ccc(OC)c(F)c3)C2)C1" please
Result: 2.45%

Problem: Entry "COc1ccc(CNC[C@H]2COCc3nc4cc(F)ccc4n32)cn1" please
Result: -18.3%
